assay: yeast display, Sf9 membrane polyspecificity reagent, FACS + sequencing; frameworks hold sequencing errors

Residues	polyreactivity (PSR sort gate)
QVQLVESGGGLVQAGGSLRLSCAASGFTFYWYAMGWYRKAPGKERELVAAISSSGGRTYYADSVKGRFTISRDNAKNTVYLQMNSLKPEDTAVYYCAAAHTREYYWGQGTQVTVSS	high polyreactivity
QVQLVESGGGLVQAGGSLRLSCAASGFTFGYYTMGWYRPEAGKEWELVAAISNSGGRTYYADSVKGRFTISLDYAKNTVYFQMNSLKPEDTAVYYCAKAYRTPGYDSWGQGTQVTVSS	high polyreactivity

###

assay: yeast display, Sf9 membrane polyspecificity reagent, FACS + sequencing; frameworks hold sequencing errors
Value Kind: polyreactivity (PSR sort gate)

Worked cases, answers included:
Residues	polyreactivity (PSR sort gate)
QVQLVESGGGLVQAGCSLRLSCAASGRIFVEYAMGWYRQAPGKVTELVAAINSGGSTNYADSVKGRFTISRDNAKNTVYLQMNSLKPEDTAVYYCNIDTLVYGYVQDYEYWGQGSQVTVSS	low polyreactivity
QVQLVESGGGLVQAGGSLRLSCAASGSIFAGNAMGWYCHAPGKERELVAAIRYGGTSTYYADSVKGRFTISRDNAKNTVYLQMNSLIPEDTAVYYCAATDWWGYYYWGQGTQVTVSS	high polyreactivity
QVQLVESGGGLVQAGGSLRLSCAASGRTSLRYAMGWYRQAPGKERELVAAIRYGGGSTRYADSVKGRFTISRDNAKNTVYLQMNSLKPEDTAVYYCAARYFPRIQYGRKGYDYWGQGTQVTVSS	low polyreactivity
QVQLVESGGGLVQAGGSLRLSCAASGFTFTRYAMGWSRQAPGKERELVAAMSRGGTTYADSVKGRFTISRDNAKNTVYLQMNSLKPDDTAVYYCNRLRYCYPQEFGYWGLGTQVTVSS	high polyreactivity

Quick request: polyreactivity (PSR sort gate) for each listed item, please.
1. QVQLVESGGGLVQAGGSLRLSCAASGIIFSYNTMGWYRPAPGKERELVAAISRTGGRTYYADSVKGRFTNSRDNAKITVYLQMNSLKPEDTAVYYCAAEQQYASMGYDYWGLGTQVTVSS
2. QVQLVESGGGLVQAGGSLRLSCAASGRTFDYYVMGWYRQAPGKERELVAAISTSGGRTYYADSVKGRFTISRDNAKNTVYLQMNSLKPEDTAVYYCAAYWGGWSFRYLYDYWGQGTQVTVSS
3. QVQLVESGGGLVQAGGSLRLICAASGFIFVWYAMGWYRQAPGKERELVAAISRRGGGTYYADSVKGRFTISRDNAKNTVYLQMNSLKPEDTAVYYCAAGSYYRYGYDFNYWGQGTQVTVSS
4. QVQLVESGGALVQAGGSLRLSCAASGRTYWSYNIGWYRKAPGKERELVAAITSSGGTTNYADSVKGRFTISRDNAKNTVYLQMNRLKREDTAVYYFAAYSWYFGSRYDYWGQGTQVTVSS
5. QVQHVESGGGLVQAGGSLRLSCAASGNIFAVYAKGWYRQAPGKERELVAAITTGTNTYADSVKGRFTISRDNAKNTVYLQMNSLKPEDTAVYYCAARYYRPLDYWGQGTQLTVSS
6. QVQLVESWGGLVQAGGSLRLSCAASGRTSGNYAMGWYRQAPGKERELVAAIRYSGSSTFYADSVKGRFTISRDNAKNTVYLQMNSLKPEDTAVYYCARDIRRKGFRYDYWGQGTQVNVSS
7. QVQLVESGGGLVQAGGSLRLSCAATGSTFAKYAMCSYRQAPGKERELVASISGSGGSTYYADSVKGRFTISRDNAKNTFYLQMNSLIPEDTAVYYSAARRYVWYYWGQGTQVTVSW
8. QVQLVESGGGLVQAGGSLRLSCAASGFIFPSYAMGWYRQAPGKERELVAAITRSSGSTYYADSVKGRFTISRDNAKNTVYLEMNCLKAVDTAVYYCNAFDYSYYRSPEMDYWGQGTQVTVSS

## Result
1. high polyreactivity
2. high polyreactivity
3. high polyreactivity
4. low polyreactivity
5. low polyreactivity
6. high polyreactivity
7. high polyreactivity
8. high polyreactivity

Quick request: polyreactivity (PSR sort gate) for each listed item, please.
1. QVQLVESGGGLVQAGGSLRLIFAASGRIFRPNAMGWYRQAPGKEREFVAAITSSSGTTYYADSVKGRFTISRDNAKNTVYLQMNSLKPEDSAVYYCAAKYTSRSYKYDYWGQGTQVTVSS
2. QVQLVESGGGLVQAGGSLRLSCAGSGSIFYSNAMGWSRPAPGKERELVAAICWNGGRTYYADSVKGRFTISRDNAKNTVYLQMNSLKPEDTAVYYCAAKYRNRYDYWGHGTQVTVSS
3. QVQLVESGGGLVQAGGSLRLSCAASGITFTEYAMGWYRQAPGKERELVAAITGSGTSTYYADSVKGRFTISRDNAKNTVYLQMNSLKPEDTAVYYCAAERKNKYDYWGQGTQVTVSS

## Result
1: high polyreactivity; 2: low polyreactivity; 3: high polyreactivity
